I'd appreciate it if you could supply Kd values for the items below.
- test_target: T1, human CD47 (human, UniProt Q08722 19-139)
- T1 construct: extracellular domain; also called CD47 ECD
- T1 sequence (Q08722 19-139 limits assumed): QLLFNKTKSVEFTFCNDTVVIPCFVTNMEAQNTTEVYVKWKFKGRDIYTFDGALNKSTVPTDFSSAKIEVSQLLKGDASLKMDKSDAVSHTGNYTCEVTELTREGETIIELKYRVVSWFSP
- assay_summary: SPR, 25 C, 1:1 Langmuir fit
Numbers only, in nM.

SIRP-α D1 variant fused to Fc variant IgG1 L234A, L235A, G237A, N297A, SEQ ID NO: 96 (Fc fusion) EEELQIIQPDKSVLVAAGETATLRCTITSLFPVGPIQWFRGAGPGRVLIYNQRQGPFPRVTTVSDTTKRNNMDFSIRIGNITPADAGTYYCIKFRKGSPDDVEFKSGAGTELSVRAKPSDKTHTCPPCPAPEAAGAPSVFLFPPKPKDTLMISRTPEVTCVVVDVSHEDPEVKFNWYVDGVEVHNAKTKPREEQYASTYRVVSVLTVLHQDWLNGKEYKCKVSNKALPAPIEKTISKAKGQPREPQVYTLPPSREEMTKNQVSLTCLVKGFYPSDIAVEWESNGQPENNYKTTPPVLDSDGSFFLYSKLTVDKSRWQQGNVFSCSVMHEALHNHYTQKSLSLSPGK	0.0104
SIRP-α D1 variant polypeptide of SEQ ID NO: 86 (receptor, engineered SIRP-α D1 domain) EEELQIIQPDKSVLVAAGETATLRCTITSLFPVGPIQWFRGAGPGRVLIYNQRQGPFPRVTTVSDTTKRNNMDFSIRIGNITPADAGTYYCIKFRKGSPDDVEFKSGAGTELSVRAKPS	0.0144

Query :: Dear colleague, I am looking for the recorded Kd of the following binder: SIRP-α D1 variant fused to Fc variant, SEQ ID NO: 100 (Fc fusion) EEELQVIQPDKSVLVAAGETATLRCTATSLFPVGPIQWFRGAGPGRELIYNQREGPFPRVTTVSDLTKRNNMDFSIRIGAITPADAGTYYCVKFRKGSPDDVEFKSGAGTELSVRAKPSDKTHTCPPCPAPEAAGAPSVFLFPPKPKDTLMISRTPEVTCVVVDVSHEDPEVKFNWYVDGVEVHNAKTKPREEQYASTYRVVSVLTVLHQDWLNGKEYKCKVSNKALPAPIEKTISKAKGQPREPQVYTLPPSREEMTKNQVSLTCLVKGFYPSDIAVEWESNGQPENNYKTTPPVLDSDGSFFLYSKLTVDKSRWQQGNVFSCSVMHEALHNHYTQKSLSLSPGK
Result :: 2.69

The reported measurements were obtained from patent US20200239543A1.
